For each entry below, report its protein stability index value.
B1: KRT18 (parent)
chain: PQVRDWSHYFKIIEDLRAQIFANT

Variants of: B1
Test: protein stability index of a GFP-peptide fusion (GPS, HEK-293T) (PSI 1-6); higher = more stable;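 further: lentivirally expressed fusions sorted by FACS into six bins by GFP to DsRed ratio, PSI derived from sequencing read proportions per bin multiplied by bin number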
Settings: c terminus: a fixed tail appended
One number for each entry.

Answered cases to consult:
RESIDUE_CODES: PQVRDWSHYFKIIEDLCAQIFANT [R17C]
READOUT_NUMBER: 1.62

RESIDUE_CODES: PQVRDWSHYFKIIEKLRAQIFANT [D15K]
READOUT_NUMBER: 3.02

RESIDUE_CODES: PQVRDWSHYFKIIEDLRARIFANT [Q19R]
READOUT_NUMBER: 2.45

RESIDUE_CODES: GQVRDWSHYFKIIEDLRAQIFANT [P1G]
READOUT_NUMBER: 1.94

RESIDUE_CODES: PQVRDWSHYMKIIEDLRAQIFANT [F10M]
READOUT_NUMBER: 2.56

// each variant listed below needs its protein stability index
1. PQVRDWSHSFKIIEDLRAQIFANT [Y9S]
2. PQVLDWSHYFKIIEDLRAQIFANT [R4L]
3. PQVRDWSHYFKIIEDLRAQIFANI [T24I]

1. 2.56
2. 1.93
3. 2.6

// each variant listed below needs its protein stability index
1. PQVRDWGHYFKIIEDLRAQIFANT [S7G]
2. PQVRDWSHYFKAIEDLRAQIFANT [I12A]
3. PQVRDWSHYHKIIEDLRAQIFANT [F10H]
4. PQVRDWSHYFKIIEDLDAQIFANT [R17D]
5. PSVRDWSHYFKIIEDLRAQIFANT [Q2S]
6. PQVRDWSHYFKIIEDLRAMIFANT [Q19M]

3.02
2.53
2.57
2.4
2.42
1.89
